# assaySummary: Phase 1b open-label pharmacokinetic study in healthy pregnant women (single dose data and simulated steady state)
# Type: in vivo, human (pregnant women)
# conditionLabel: female, human, in vivo; pregnant women, oral 400 mg BID (two doses 12 hours apart), N = 7; read-out: AUC0-24
measurementName: AUC(0-t) (ng·h/mL)
Answers are plain numbers, in ng·h/mL.

Enquiry: What value of AUC(0-t) has been reported for the following compound? CCCCCC(=O)O[C@]1(C(C)=O)CC[C@H]2[C@@H]3CCC4=CC(=O)CC[C@]4(C)[C@H]3CC[C@@]21C [Example 17HPC, 17-hydroxyprogesterone caproate]
Return: 156

----------
# assaySummary: Phase 1b open-label pharmacokinetic study in healthy pregnant women (single dose data and simulated steady state)
# Format: in vivo, human (pregnant women)
# conditionLabel: female, human, in vivo; pregnant women, oral 800 mg BID (two doses 12 hours apart), N = 7
measurementName: Cmax (ng/mL)
Numbers only, in ng/mL.

Enquiry: What value of Cmax has been reported for the following compound? CCCCCC(=O)O[C@]1(C(C)=O)CC[C@H]2[C@@H]3CCC4=CC(=O)CC[C@]4(C)[C@H]3CC[C@@]21C [Example 17HPC, 17-hydroxyprogesterone caproate]
Return: 63.2
